System: Aspergillus flavus
Experimental Protocol: Antimicrobial activity against Aspergillus flavus ATCC 16870 incubated for 24 hrs in presence of polyoxin B by checkerboard method
Type: functional
Readout: MIC (µg/mL)

O=C(c1ccc([N+](=O)[O-])cc1)N1CCN(CC(=O)N2CCCC23Cc2ccccc2NC3=O)CC1 (centres undefined) ... 1
O=C(c1c(F)cccc1F)N1CCN(CC(=O)N2CCCC23Cc2ccccc2NC3=O)CC1 (centres undefined) ... 1
O=C(c1cccc(F)c1)N1CCN(CC(=O)N2CCCC23Cc2ccccc2NC3=O)CC1 (centres undefined) ... 2
O=C(c1cc([N+](=O)[O-])ccc1Cl)N1CCN(CC(=O)N2CCCC23Cc2ccccc2NC3=O)CC1 (centres undefined) ... 1
